Test system: Staphylococcus aureus
Protocol text: Inhibition of Staphylococcus aureus Newman sortase A assessed as […] in fibrinogen-mediated cell clumping after 2 hrs
Setup conditions: dose microM 25-100, time 2.0 hrs
Measured quantity: inhibition

[
  {
    "Smiles notation": "CC(C)(O)[C@H](O)COc1ccc2ccc(=O)oc2c1C[C@H](O)C(C)(C)O",
    "System name": "Staphylococcus aureus",
    "Observed value": "Dose-dependent effect"
  },
  {
    "Smiles notation": "COC(C)(C)[C@@H](O)Cc1c(OC[C@@H](O)C(C)(C)O)ccc2ccc(=O)oc12",
    "System name": "Staphylococcus aureus",
    "Observed value": "Dose-dependent effect"
  },
  {
    "Smiles notation": "CC(C)C(=O)Cc1c(OC[C@@H](O)C(C)(C)O)ccc2ccc(=O)oc12",
    "System name": "Staphylococcus aureus",
    "Observed value": "Dose-dependent effect"
  },
  {
    "Smiles notation": "C=C(C)[C@H](CC/C(C)=C/COc1ccc2ccc(=O)oc2c1)OO",
    "System name": "Staphylococcus aureus",
    "Observed value": "Dose-dependent effect"
  },
  {
    "Smiles notation": "C/C(=C\\COc1ccc2ccc(=O)oc2c1)C/C=C/C(C)(C)OO",
    "System name": "Staphylococcus aureus",
    "Observed value": "Dose-dependent effect"
  }
]
